# Test system: SK-MEL-2 melanoma
# procedure_text: NCI tumour cell line growth inhibition, 48 h
As shown below, each of these molecules has a reported TGI value.

Example entries and their recorded answers appear below.
>  <molecule>
CC(C)=CC(=O)CC(=O)C(=O)NCCNC(=O)C(=O)CC(=O)C=C(C)C

>  <TGI>
> 50 µM

$$$$
>  <molecule>
O=C(O)c1ccccc1CC(Cc1ccccc1)C(=O)O (stereo not drawn)

>  <TGI>
> 100 µM

$$$$

Then this molecule:
Short answer please: TGI, SK-MEL-2 melanoma, entry COc1cc(OC)c(/C=C/C(=O)c2c(N)cc(OC)cc2OC)c(OC)c1
> 100 µM

These measurements were taken from PubChem BioAssay (NCI).
